Tested on: SW620 (colorectal adenocarcinoma)
test: In vitro antiproliferation assay, SW620
Assay type: cell-based
condition_parameters: Homo sapiens, SW-620
pIC50: −log10 of the molar value.
metric_name: pIC50

Task item: I have this molecule here, Cc1cc(Nc2ncc(F)c(N[C@H]3[C@@H](C(N)=O)[C@@H]4C=C[C@H]3C4)n2)ccc1N1CCN(C)CC1 [Compound 60a] , and I need its recorded pIC50.
Reply: 7.70 to 8.00

====

Test system: SK-OV-3 (ovarian adenocarcinoma)
test: In vitro antiproliferation assay, SK-OV-3
Format: cell-based
condition_parameters: Homo sapiens, SKOV3
metric_name: IC50

Task item: Query for SK-OV-3 (ovarian adenocarcinoma): what IC50 does the record show for Cc1cc(Nc2ncc(F)c(N[C@H]3[C@@H](C(N)=O)[C@@H]4C=C[C@H]3C4)n2)ccc1N1CCN(C)CC1 [Compound 60a] ?
Reply: 10 to 20 nM

====

Tested on: H7299
test: In vitro antiproliferation assay, H7299
Format: cell-based
condition_parameters: listed as 60r1-2HCl
metric_name: IC50

Task item: Item under review: Cc1cc(Nc2ncc(F)c(NC3C4C=CC(C4)C3C(N)=O)n2)ccc1N1CCN(C)CC1 (racemic) [Compound 60r1.2HCl] . Reported IC50?
Reply: 20 to 1000 nM

====

System: ASPC-1 (pancreatic adenocarcinoma)
test: In vitro antiproliferation assay, ASPC-1
Format: cell-based
condition_parameters: ASPC1
metric_name: IC50

Task item: What value of IC50 has been recorded for this entry: Cc1cc(Nc2ncc(F)c(NC3C4C=CC(C4)C3C(N)=O)n2)ccc1N1CCN(C)CC1 (racemic)
Reply: 10 to 20 nM

====

System: U2OS (bone osteosarcoma)
test: In vitro antiproliferation assay, U2OS
Type: cell-based
condition_parameters: U20S
metric_name: IC50

Cc1cc(Nc2ncc(F)c(NC3C4C=CC(C4)C3C(N)=O)n2)ccc1N1CCN(C)CC1 (racemic) [Compound 60r1] : 10 to 20 nM

Task item: Which IC50 is listed for Cc1cc(Nc2ncc(F)c(N[C@@H]3[C@H](C(N)=O)[C@H]4C=C[C@@H]3C4)n2)ccc1N1CCN(C)CC1 [Compound 60b] ?
Reply: 20 to 1000 nM

====

Test system: PC3 (prostate adenocarcinoma)
test: In vitro antiproliferation assay, PC3
Format: cell-based
pIC50: −log10 of the molar value.
metric_name: pIC50

Task item: Dear colleague, I am looking for the recorded pIC50 of the following molecule: Cc1cc(Nc2ncc(F)c(NC3C4C=CC(C4)C3C(N)=O)n2)ccc1N1CCN(C)CC1 (racemic)
Reply: 7.70 to 8.00

====

# key: entry, value: pIC50
Tested on: H1299 (non-small cell lung carcinoma)
test: In vitro antiproliferation assay, H1299
Assay type: cell-based
pIC50: −log10 of the molar value.

Cc1cc(Nc2ncc(F)c(N[C@H]3[C@@H](C(N)=O)[C@@H]4C=C[C@H]3C4)n2)ccc1N1CCN(C)CC1.Cl.Cl [Compound 60a.2HCl] : 6.00 to 7.70

Next, consider the following compound.
Task item: Given the compound Cc1cc(Nc2ncc(F)c(NC3C4C=CC(C4)C3C(N)=O)n2)ccc1N1CCN(C)CC1 (racemic) [Compound 60r1.2HCl] , what is its reported pIC50?
Reply: 6.00 to 7.70
